Biological target: biotinylated human DLL3 protein expressed as a human IgG1 fusion protein (human) (UniProt Q9NYJ7)
Sequence (Q9NYJ7 other isoform, or with tags, fused parts or gaps): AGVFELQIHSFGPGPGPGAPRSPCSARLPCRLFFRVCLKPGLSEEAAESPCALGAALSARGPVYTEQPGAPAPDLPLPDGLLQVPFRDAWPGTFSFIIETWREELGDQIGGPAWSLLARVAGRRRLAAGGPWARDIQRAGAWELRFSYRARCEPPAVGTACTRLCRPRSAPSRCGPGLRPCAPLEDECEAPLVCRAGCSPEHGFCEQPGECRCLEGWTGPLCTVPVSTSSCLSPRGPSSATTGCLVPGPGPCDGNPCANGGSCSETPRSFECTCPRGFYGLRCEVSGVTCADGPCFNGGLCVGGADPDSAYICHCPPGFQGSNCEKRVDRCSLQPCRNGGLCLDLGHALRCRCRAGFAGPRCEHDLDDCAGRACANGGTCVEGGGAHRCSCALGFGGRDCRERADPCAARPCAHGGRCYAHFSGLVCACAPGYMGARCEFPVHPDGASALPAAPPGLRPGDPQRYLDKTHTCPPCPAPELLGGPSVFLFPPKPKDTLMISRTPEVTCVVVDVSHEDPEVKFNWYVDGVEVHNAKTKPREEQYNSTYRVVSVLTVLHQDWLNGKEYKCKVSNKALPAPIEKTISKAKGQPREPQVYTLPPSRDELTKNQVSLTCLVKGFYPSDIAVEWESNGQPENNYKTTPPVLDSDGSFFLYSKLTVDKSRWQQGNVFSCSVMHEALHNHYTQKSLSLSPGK
Assay: Octet BLI; biotinylated huDLL3-IgG1 fusion on streptavidin tips; single 50 nM; conditioned medium
What Kd was measured for each of the following?
Give your result in nM as a bare value.

Lookup: Recorded Kd of anti-DLL3 trispecific protein 4C03 (protein, part only; not given: CD3 fragment and albumin sdAb, part only) chain, part: EVQLVESGGGLVQPGGSLTLSCAASGSKVSFMSMAWYRQAPGKKRELVAGISVDGSTDYIDSVKGRFTISRDNAKNSVYLQMNSLRAEDTAVYYCYAYRWRTRYTYWGQGTLVTVSSGGGGSGGGSGGGGSGGGSHHHHHH , please.
Found: 6.6

Lookup: Recorded Kd of anti-DLL3 trispecific protein 4G011 (protein, part only; not given: anti-CD3 fragment and anti-albumin sdAb, part only) chain, part: EVQLVESGGGLVQPGGSLTLSCAASGSSVRFLSMAWYRQAPGKKRELVAGISADGSTDYIGSVKGRFTISRDNAKNSVYLQMNSLRAEDTAVYYCYAYRWSTRYTYWGQGTLVTVSSGGGGSGGGSGGGGSGGGSHHHHHH , please.
Found: 7.5

Lookup: Recorded Kd of anti-DLL3 trispecific protein 2E09 (protein, part only; not given: anti-CD3 and anti-albumin domains, part only) chain, part: EVQLVESGGGLVQPGGSLTLSCVASGSVSSINAMGWYRRAPGKQRELVAGISSDGSKVYASSAKGRFTISRDNAKNSVYLQMNSLRAEDTAVYYCYYFRTLSGSSMRYWGQGTLVTVSSGGGGSGGGSGGGGSGGGSHHHHHH , please.
Found: 8.5

Lookup: Recorded Kd of anti-DLL3 trispecific protein 4H011 (protein, part only; not given: anti-CD3 and anti-albumin domains, part only) chain, part: EVQLVESGGGLVQPGGSLTLSCAASGSSVSRLSMAWYRQAPGKKRELVAGISVDGSTDYIDSVKGRFTISRDNAKNSVYLQMNSLRAEDTAVYYCYAYRWTTRLTYWGQGTLVTVSSGGGGSGGGSGGGGSGGGSHHHHHH , please.
Found: 4.5

Where these numbers come from: patent US20200095340A1
